Target: Rap guanine nucleotide exchange factor 4 (Mus musculus, UniProt Q9EQZ6)
Sequence (Q9EQZ6 whole entry): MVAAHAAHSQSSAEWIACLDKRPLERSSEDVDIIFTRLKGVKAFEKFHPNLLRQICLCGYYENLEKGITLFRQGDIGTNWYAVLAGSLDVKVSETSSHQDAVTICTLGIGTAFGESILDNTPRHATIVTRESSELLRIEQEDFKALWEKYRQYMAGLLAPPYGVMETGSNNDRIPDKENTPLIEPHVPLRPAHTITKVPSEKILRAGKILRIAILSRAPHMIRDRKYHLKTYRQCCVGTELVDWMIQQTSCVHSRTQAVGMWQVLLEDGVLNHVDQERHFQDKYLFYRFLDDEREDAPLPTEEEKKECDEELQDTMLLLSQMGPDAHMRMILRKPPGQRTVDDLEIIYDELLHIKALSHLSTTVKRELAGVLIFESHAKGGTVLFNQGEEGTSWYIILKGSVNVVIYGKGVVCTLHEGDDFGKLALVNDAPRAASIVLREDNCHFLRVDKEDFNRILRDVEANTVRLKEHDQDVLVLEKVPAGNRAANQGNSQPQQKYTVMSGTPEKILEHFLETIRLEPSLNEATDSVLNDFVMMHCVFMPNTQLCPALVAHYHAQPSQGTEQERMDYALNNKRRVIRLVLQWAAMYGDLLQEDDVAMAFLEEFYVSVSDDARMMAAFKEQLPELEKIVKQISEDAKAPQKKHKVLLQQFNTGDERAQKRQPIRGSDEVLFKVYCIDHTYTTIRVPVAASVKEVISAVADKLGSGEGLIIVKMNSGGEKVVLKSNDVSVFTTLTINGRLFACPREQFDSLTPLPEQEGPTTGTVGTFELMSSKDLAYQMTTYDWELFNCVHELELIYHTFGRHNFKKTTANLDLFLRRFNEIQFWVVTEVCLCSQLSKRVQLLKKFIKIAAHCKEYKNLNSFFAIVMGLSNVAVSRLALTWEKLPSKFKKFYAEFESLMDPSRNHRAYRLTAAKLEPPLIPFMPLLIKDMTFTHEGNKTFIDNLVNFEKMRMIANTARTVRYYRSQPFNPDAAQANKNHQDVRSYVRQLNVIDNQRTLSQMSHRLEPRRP
Experiment: Displacement of 8-NBD-cAMP from mouse recombinant EPAC2 by fluorescence assay
Quantity Measured: IC50

Please review the entries below; each comes with its answer.
Cc1cc(NC(=O)/C(C#N)=N/Nc2cccc(Cl)c2)no1    Not Active
CC(C)(C)c1cc(-c2n[nH]c(N)c2/N=N/c2cccc(Cl)c2)no1    Not Active
Cc1cc(C(=O)/C(C#N)=N/Nc2cccc(Cl)c2)no1    Not Active
CC(=O)c1cccc(N/N=C(\C#N)C(=O)c2cc(C(C)(C)C)on2)c1    Not Active
CC(C)(C)c1cc(NC(=O)Nc2cccc(Cl)c2)no1    Not Active

Supply reported IC50 belonging to this compound: N#C/C(=N\Nc1cccc(Cl)c1)C(=O)c1cc(-c2ccccc2)on1
Not Active

Give recorded IC50. CC(C)(C)c1cc(NC(=O)/C(C#N)=N/Nc2cccc(Cl)c2)no1
Not Active
